Experiment: Viability qHTS for spleen associated tyrosine kinase inhibitor (SYKi) naive MV4-11 cells (AID 1963823); also: nearly all actives have a fitted effect of over 40% in size
Conditions: MV4-11 AML viability, CellTiter-Glo luminescence, 72 h; series mostly up to 45 µM
Results filed as inconclusive are left out. Activity calls are given as the source filed them. Calls follow the shape of the dose curve; as a rule, active = well fitted cell-killing curve with a large enough effect; inconclusive = small, poorly fitted or top-dose-only effect, or effect the other way; inactive = no such curve, though single readings can be large or run the other way.
Possible outcomes: active, inactive

1) O=c1[nH]c2cc(Cl)ccc2n1C1CCNCC1 = inactive
2) CC(C)(O)/C=C\C(=O)[C@](C)(O)[C@H]1[C@H](O)C[C@]2(C)[C@@H]3CC=C4[C@@H](C=C(O)C(=O)C4(C)C)[C@]3(C)C(=O)C[C@@]12C = active
3) CCCCCCC(C)(C)c1cc(O)c2c(c1)OC(C)(C)C1CC=C(CO)C[C@H]21 (stereo partly drawn) = active
4) CO[C@]12CC[C@@]3(C[C@@H]1[C@](C)(O)C(C)(C)C)[C@@H]1Cc4ccc(O)c5c4[C@@]3(CCN1CC1CC1)[C@H]2O5 = active
5) C=C1C2(C)CC3C(C)(O)C4=CC(=O)OC(C)(C)C4=CCC3(C)C13C(=O)OC(C)C3(O)C2=O (stereo not drawn) = inactive
6) CO/C=C(/C(=O)OC)c1ccccc1Oc1cc(Oc2ccccc2C#N)ncn1 = active
7) Cc1[nH]ncc1-c1cc2nc([C@@H]3CC4CCN3CC4)[nH]c(=O)c2s1 = active
8) Nc1ccccc1 = inactive
9) C[C@@H]1C(=O)O[C@H]2[C@H](O)[C@@]34[C@@H]5OC(=O)[C@@]3(O[C@@H]3OC(=O)[C@@H](O)[C@@]34[C@H](C(C)(C)C)[C@H]5O)[C@@]12O = inactive
10) CC[C@H]1/C=C\C=C/C[C@@H](C)[C@H](O)[C@@](C)(O)C(=O)[C@@H](C)[C@H](O)[C@@H](C)C(=O)[C@@H](C)[C@H](O)[C@@H](C)/C=C\C(=O)O[C@@H]2[C@H](C)[C@H](CC1)O[C@]1(CC[C@H](C)[C@H](C[C@@H](C)O)O1)[C@H]2C = active
11) CC(C)NCC(O)c1ccc([N+](=O)[O-])cc1 (stereo not drawn) = inactive
12) CC[C@@H](C(N)=O)N1CCCC1=O = inactive
13) N[C@@H](Cc1ccc(Oc2cc(I)c(O)c(I)c2)c(I)c1)C(=O)O = inactive
14) CCN(CC)C(=O)N[C@@H]1C=C2c3cccc4[nH]cc(c34)C[C@@H]2N(C)C1 = inactive
15) CS(=O)(=O)c1ccc(C(=O)C2C(=O)CCCC2=O)c([N+](=O)[O-])c1 = active
16) CC(Cc1ccccc1)NCc1ccccc1Cl (stereo not drawn) = inactive
17) CC(Cc1ccc(O)cc1)NCC(O)c1cc(O)cc(O)c1 (stereo not drawn) = inactive
18) COc1cc(N)c(Cl)cc1C(=O)NC1CN2CCC1CC2 (stereo not drawn) = inactive

###

Experiment: Viability qHTS for spleen associated tyrosine kinase inhibitor (SYKi) drug resistant MV4-11 cells (AID 1963824); also: nearly all actives have a fitted effect of over 35% in size
Settings: SYKi-resistant MV4-11 viability, CellTiter-Glo, 72 h; series mostly up to 45 µM
Inconclusive results are not listed. The source made the active and inactive calls. Calls follow the shape of the dose curve; as a rule, active = well fitted cell-killing curve with a large enough effect; inconclusive = small, poorly fitted or top-dose-only effect, or effect the other way; inactive = no such curve, though single readings can be large or run the other way.
Possible outcomes: active, inactive

1) CC1=CC2/C=C(\C)CCC(O)C3OC(C)(C)OC3CC(=O)OC23C(=O)NC(CC(C)C)C3C1C (centres undefined) = active
2) COc1ccc2c(c1OC)CN1CCc3cc4c(cc3C1C2)OCO4 (centres undefined) = active
3) C[C@]12CC[C@H]3[C@@H](CC[C@@]45O[C@H]4C(O)=C(C#N)C[C@]35C)[C@H]1CC[C@H]2O = active
4) CC1=C[C@H]2O[C@@H]3[C@H](O)[C@@H](O)[C@](C)([C@@]2(CO)C[C@@H]1O)[C@]31CO1 = active
5) COC[C@]12CN(C)C3C4[C@H](OC)[C@H]1C3(C(OC)C[C@H]2O)[C@H]1C[C@@]2(O)[C@H](OC(=O)c3ccccc3)[C@@H]1[C@]4(O)[C@@H](O)[C@@H]2OC (some centres undefined) = inactive
6) CO[C@H]1C[C@H](O[C@H]2CC[C@]3(C=O)[C@H]4CC[C@]5(C)[C@@H](C6=CC(=O)OC6)CC[C@]5(O)[C@@H]4CC[C@]3(O)C2)O[C@H](C)[C@H]1O = active
7) COC1CC(O[C@H]2CC[C@]3(C)C4CC[C@]5(C)[C@@H](C6=CC(=O)OC6)[C@@H](OC(C)=O)C[C@]5(O)C4CC[C@@H]3C2)OC(C)C1O[C@@H]1O[C@H](CO)[C@@H](O)[C@H](O)[C@H]1O (some centres undefined) = active
8) C[C@@H]1CN(C2CCC(C#N)(c3ccc(F)cc3)CC2)CC[C@]1(C(=O)O)c1ccccc1 (some centres undefined) = inactive
9) O=C1CC[C@@]2(O)[C@H]3Cc4ccc(O)c5c4[C@@]2(CCN3CC2CC2)[C@H]1O5 = inactive
10) CO[C@H]1CCC(O[C@H]2C[C@H]([C@]3(C)CC[C@]4(C[C@H](O)[C@@H](C)[C@@H]([C@@H](C)/C=C(\C)C(=O)[C@H](C)C[C@H](C)C(=O)O)O4)O3)O[C@]3(O[C@@H]([C@H]4O[C@@](O)(CO)[C@H](C)C[C@@H]4C)C[C@@H]3C)[C@@H]2C)O[C@@H]1C (some centres undefined) = active
11) C[C@]12Cc3nonc3C[C@@H]1CC[C@@H]1[C@@H]2CC[C@@]2(C)[C@H]1CC[C@]2(C)O = active
12) O=P1(N(CCCl)CCCl)NCCCO1 (centres undefined) = inactive
13) C[C@]12CC[C@H](OC3OC(CO)C(O)C(O)C3OC3OC(CO)C(O)C(O)C3O)C[C@@H]1CC[C@@H]1C2CC[C@]2(C)[C@@H](C3=CC(=O)OC3)CC[C@]12O (some centres undefined) = active
14) CO[C@H]1[C@@H](O)[C@@H](C)O[C@@H](O[C@@H]2C=C3C(OC(C)=O)CC4(O)C(CC[C@]5(C)[C@@H](C6=CC(=O)OC6)CC[C@]45O)[C@@]3(C)CC2)[C@@H]1O (some centres undefined) = active
15) N#CC(OC1OC(COC2OC(CO)C(O)C(O)C2O)C(O)C(O)C1O)c1ccccc1 (centres undefined) = inactive
16) C/C=C1/CN2CC[C@]34C(=Nc5ccccc53)[C@@H]2C[C@@H]1[C@H]4C(=O)OC = active
17) CC[C@@H]1/C=C/C=C/C[C@H](C)C(O)[C@](C)(O)C(=O)[C@H](C)C(O)[C@H](C)C(=O)[C@H](C)[C@@H](O)[C@H](C)/C=C/C(=O)O[C@H]2[C@@H](C)[C@@H](CC1)O[C@]1(O[C@H](C[C@H](C)O)[C@H](C)CC1=O)[C@@H]2C (some centres undefined) = active
18) c1ccc2nc(N3CCNCC3)ccc2c1 = inactive
19) NCC(O)c1ccc(O)cc1 (centres undefined) = inactive
20) CCC(C)(C)c1ccc(O)cc1 = inactive
21) C[C@H](N)[C@H](O)c1ccc(O)c(O)c1 = inactive
22) COc1cc(CC(C)N)cc2c1OCO2 (centres undefined) = inactive
23) Clc1ccc(CO/N=C(\Cn2ccnc2)c2ccc(Cl)cc2Cl)c(Cl)c1 = active
24) C=CCOC(Cn1ccnc1)c1ccc(Cl)cc1Cl (centres undefined) = active
25) CCCCCCC(=O)CCCCCC/C=C/C[C@@H](O)[C@H](O)[C@@](N)(CO)C(=O)O = inactive
26) Nc1ccc(Sc2ccc(N)cc2)cc1 = active
27) C[C@@H](N)[C@@H](O)c1ccccc1 = inactive
28) CC(C)(C)NCC(O)c1cc(Cl)c(N)c(C(F)(F)F)c1 (centres undefined) = inactive
29) Cc1sc2c(c1C)C(c1ccc(Cl)cc1)=NC(CC(=O)OC(C)(C)C)c1nnc(C)n1-2 (centres undefined) = active
30) CCc1c(C(=O)C(N)=O)c2c(OCC(=O)O)cccc2n1Cc1ccccc1 = inactive
31) Oc1ccc(Cl)cc1 = inactive
32) CN1CCN(c2ccc([N+](=O)[O-])c3no[n+]([O-])c23)CC1 = active
33) CC[N+]1(C)CCCC(OC(=O)C(O)(c2ccccc2)c2ccccc2)C1 (centres undefined) = inactive
34) COC1C=CC23c4cc5c(cc4COC2(O)CN(C)C3C1)OCO5 (centres undefined) = inactive

###

Experiment: Viability qHTS for spleen associated tyrosine kinase inhibitor (SYKi) drug resistant MV4-11 cells (AID 1963824); also: nearly all actives have a fitted effect of over 35% in size
Conditions: SYKi-resistant MV4-11 viability, CellTiter-Glo, 72 h; series mostly up to 45 µM
Records with an inconclusive call do not appear. Calls of active or inactive are those of the source. Calls come from the whole dose curve; as a rule, active = well fitted cell-killing curve with a large enough effect; inconclusive = small, poorly fitted or top-dose-only effect, or effect the other way; inactive = no such curve, though single readings can be large or run the other way.
Possible outcomes: active, inactive

1. O=c1[nH]oc2c1CCNC2 = inactive
2. CC(C)(N)Cc1ccc(Cl)cc1 = inactive
3. Cc1ccc(N=CN(C)C=Nc2ccc(C)cc2C)c(C)c1 = inactive
4. CC(=O)NC1CCSC1=O (stereo not drawn) = inactive
5. NCC1(CC(=O)O)CCCCC1 = inactive
6. OCCOc1ccccc1 = inactive
7. COC[C@H]1OC(=O)c2coc3c2[C@@]1(C)C1=C(C3=O)[C@@H]2CC[C@H](O)[C@@]2(C)C[C@@H]1OC(C)=O = active
8. CC(C)NC(C)C = inactive
9. O=C1CN=C(c2cccc(Br)c2)c2oc3ccccc3c2N1 = active
10. C=C1C(=O)O[C@@H]2[C@H]3C(=C)[C@@H](O)C[C@H]3C(=C)C[C@@H](O)[C@@H]12 = active
11. CCCCCn1cc(C(=O)Oc2cccc3cccnc23)c2ccccc21 = active
12. COc1cc(CC(C)N)cc(OC)c1OC (stereo not drawn) = inactive
13. COc1ccc(C(=O)c2c(C)n(CCN3CCOCC3)c3ccccc23)cc1 = active
